targetSystem: hROMK (hKir1.1) (Homo sapiens)
assay: Thallium Flux Assay (ROMK channel functional thallium flux assay)
conditionsUsed: HEK293 cells stably expressing hROMK (hKir1.1); FluxOR thallium flux, FLIPR-Tetra, 30 min compound incubation; read-out: ROMK TI IC50
pIC50: −log10 of the molar value.
quantityKind: pIC50

compound: Cc1c([C@@H](O)CN2CCC3(CC2)CCN(c2ccnc(N)n2)C3=O)ccc2c1COC2=O
observed: 6.31
//
compound: Cc1c([C@@H](O)CN2CCC3(CC2)CN(c2ccc(=O)n(C)n2)C(=O)O3)ccc2c1COC2=O
observed: 6.31
//
compound: Cc1c([C@@H](O)CN2CCC3(CC2)CC(=O)N(c2ccc(=O)n(C)n2)C3)ccc2c1COC2=O
observed: 7.02

P. Cc1c([C@@H](O)CN2CCC3(CC2)CCN(c2cc(F)ncn2)CC3)ccc2c1COC2=O
Q. [2H]C([2H])([2H])Oc1nccc(N2CCC3(CCN(C[C@H](O)c4ccc5c(c4C)COC5=O)CC3)C2=O)n1
R. Cc1c([C@@H](O)CN2CCC3(CC2)CCN(c2ncc(C(F)(F)F)cc2F)CC3)ccc2c1COC2=O
S. Cc1c([C@@H](O)CN2CCC3(CCCN(c4ccc(=O)n(C)n4)C3=O)CC2)ccc2c1COC2=O
Query string: Sort these compounds on pIC50 so the largest reading comes first. Returns: the labels arranged in the requested order.
Result string: Q, S, P, R

a. COc1ccc(N2CCC3(CCN(C[C@H](O)c4ccc5c(c4C)COC5=O)CC3)C2=O)nn1
b. [2H]C([2H])(N1CCC2(CCN(c3ccc(=O)n(C)n3)C2=O)CC1)[C@]([2H])(O)c1ccc2c(c1C)COC2=O (single isomer, unassigned)
c. COc1nccc(N2CC3(CCN(C[C@H](O)c4ccc5c(c4C)COC5=O)CC3)CC2=O)n1
Query string: Put the items in sequence by pIC50, from largest down. Lab note: record answer as labels in requested order.
Result string: b, c, a

----------
targetSystem: hROMK (hKir1.1) (Homo sapiens, UniProt P48048)
Construct: expressed in transfected cells
Sequence (P48048 whole entry): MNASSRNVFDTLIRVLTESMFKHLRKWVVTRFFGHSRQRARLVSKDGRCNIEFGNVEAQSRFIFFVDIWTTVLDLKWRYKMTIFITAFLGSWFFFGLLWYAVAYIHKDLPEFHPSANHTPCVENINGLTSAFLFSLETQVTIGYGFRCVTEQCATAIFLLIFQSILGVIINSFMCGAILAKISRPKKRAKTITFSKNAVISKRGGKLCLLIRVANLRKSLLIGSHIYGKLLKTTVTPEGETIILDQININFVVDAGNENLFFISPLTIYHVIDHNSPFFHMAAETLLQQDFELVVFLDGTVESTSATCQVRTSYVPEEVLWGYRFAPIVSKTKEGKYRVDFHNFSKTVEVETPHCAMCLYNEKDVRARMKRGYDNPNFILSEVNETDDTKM
assay: Thallium Flux Assay (ROMK channel functional thallium flux assay)
Assay type: cell-based
conditionsUsed: HEK293 cells stably expressing hROMK (hKir1.1); FluxOR thallium flux, FLIPR-Tetra, 30 min compound incubation; read-out: ROMK TI IC50
pIC50: −log10 of the molar value.
quantityKind: pIC50

A. Cc1c([C@@H](O)CN2CCC3(CC2)CN(c2ccns2)C3)ccc2c1COC2=O
B. COc1cnc(N2CCC3(CCN(C[C@H](O)c4ccc5c(c4C)COC5=O)CC3)CC2)nc1
C. COc1cc(N2CCC3(CCN(C[C@H](O)c4ccc5c(c4C)COC5=O)CC3)C2)ccn1
D. Cc1nc(-n2cnnn2)ccc1[C@@H](O)CN1CCC2(CC1)CCN(c1ncns1)C2=O
Query string: Rank order required: pIC50, descending. Respond with the label ranking, as requested.
Result string: B, D, A, C

1. Cc1c([C@@H](O)CN2CCC3(CC2)CCN(c2cncc(C(=O)O)n2)CC3)ccc2c1COC2=O
2. Cc1cc(N2CCC3(CCN(C[C@H](O)c4ccc5c(c4C)COC5=O)CC3)C2=O)ccn1
Query string: Compare pIC50: is it lower for 1 or for 2 ? Indicate your choice by writing its label.
Result string: 1

----------
targetSystem: hROMK (hKir1.1) (Homo sapiens, UniProt P48048)
assay: Thallium Flux Assay (ROMK channel functional thallium flux assay)
conditionsUsed: HEK293 cells stably expressing hROMK (hKir1.1); FluxOR thallium flux, FLIPR-Tetra, 30 min compound incubation; read-out: ROMK TI IC50
quantityKind: IC50 (nM)

Sample answers from the record:
compound: COc1cc(N2CCC3(CCN(C[C@H](O)c4ccc5c(c4C)COC5=O)CC3)C2=O)nc(OC)n1
targetSystem: hROMK (hKir1.1) (Homo sapiens, UniProt P48048)
IC50 (nM): 842

compound: COc1cnc(N2CCC3(CCN(C[C@H](O)c4ccc5c(c4C)COC5=O)CC3)CC2)cn1
targetSystem: hROMK (hKir1.1) (Homo sapiens, UniProt P48048)
IC50 (nM): 350

compound: O=C1N(c2ccns2)CCC12CCN(C[C@@H](O)c1ccc(-n3cnnn3)nc1)CC2
targetSystem: hROMK (hKir1.1) (Homo sapiens, UniProt P48048)
IC50 (nM): 203

compound: Cc1cnsc1N1CCC2(CCN(C[C@H](O)c3ccc4c(c3C)COC4=O)CC2)C1=O
targetSystem: hROMK (hKir1.1) (Homo sapiens, UniProt P48048)
IC50 (nM): 65.5

a. Cn1nc(N2CCC3(CCN(C[C@@H](O)c4cccc(-n5cnnn5)c4)CC3)C2=O)ccc1=O
b. CNc1nccc(N2CCC3(CCN(C[C@H](O)c4ccc5c(c4C)COC5=O)CC3)C2=O)n1
c. Cc1c([C@@H](O)CN2CCC3(CC2)CCN(c2ccncc2F)C3=O)ccc2c1COC2=O
d. Cc1c([C@@H](O)CN2CCC3(CC2)CCN(c2cnn(C)c(=O)c2)CC3)ccc2c1COC2=O
Query string: Could you please order the items by IC50, going from the lowest number to the highest? Your reply should list the labels following the order given in the request.
Result string: b, d, c, a
(b: 58.5 nM, d: 279 nM, c: 417 nM, a: 702 nM)

----------
targetSystem: hROMK (hKir1.1) (Homo sapiens)
assay: Thallium Flux Assay (ROMK channel functional thallium flux assay)
conditionsUsed: HEK293 cells stably expressing hROMK (hKir1.1); FluxOR thallium flux, FLIPR-Tetra, 30 min compound incubation; read-out: ROMK TI IC50
quantityKind: IC50 (nM)

compound: COc1cc(N2CC3(CCN(C[C@H](O)c4ccc5c(c4C)COC5=O)CC3)CC2=O)ccn1
IC50 [nM]: 149

A. CC(=O)OCc1nsc(N2CCC3(CCN(C[C@H](O)c4ccc5c(c4C)COC5=O)CC3)C2)n1
B. Cc1nc(-n2cnnn2)ccc1[C@@H](O)CN1CCC2(CC1)CCN(c1ccc(=O)n(C)n1)C2=O
C. Cc1c([C@@H](O)CN2CCC3(CC2)C[C@@H](C)N(c2ccc(=O)n(C)n2)C3=O)ccc2c1COC2=O
D. Cc1c([C@@H](O)CN2CCC3(CC2)CCN(c2cncnc2)C3=O)ccc2c1COC2=O
Query string: Sort these compounds on IC50 so the largest reading comes first. Provide your answer as the labels ordered per the instruction.
Result string: D, B, A, C
(D: 676 nM, B: 259 nM, A: 100 nM, C: 54.7 nM)

----------
targetSystem: hROMK (hKir1.1) (Homo sapiens)
assay: Thallium Flux Assay (ROMK channel functional thallium flux assay)
conditionsUsed: HEK293 cells stably expressing hROMK (hKir1.1); FluxOR thallium flux, FLIPR-Tetra, 30 min compound incubation; read-out: ROMK TI IC50
pIC50: −log10 of the molar value.
quantityKind: pIC50

compound: Cc1c([C@@H](O)CN2CCC3(CC2)CCN(c2ccnc(N(C)C)n2)C3=O)ccc2c1COC2=O
pIC50: 6.28
--
compound: Cc1c([C@@H](O)CN2CCC3(CC2)CCN(c2cncc(F)c2)CC3)ccc2c1COC2=O
pIC50: 6.73

A. Cn1nc(N2CCC3(CCN(CCc4ccc(-n5cnnn5)nn4)CC3)C2=O)ccc1=O
B. Cc1c([C@@H](O)CN2CCC3(CC2)CCN(c2ccnc(Cl)n2)C3=O)ccc2c1COC2=O
Query string: Dear colleague, could you let me know whether A or B has the lower recorded pIC50? Thanks. Selection: enter the item's label.
Result string: A

A. COc1nsc(N2CCC3(CCN(C[C@H](O)c4ccc5c(c4C)COC5=O)CC3)C2)n1
B. O[C@@H](CN1CCC2(CC1)CCN(c1cncc(Cl)n1)CC2)c1ccc(-n2cnnn2)nc1
C. Cc1cc(N2CCC3(CCN(C[C@H](O)c4ccc5c(c4C)COC5=O)CC3)C2=O)sn1
Query string: List the 3 entries from lowest pIC50 to highest pIC50 value. Answer by writing out the labels in the requested order.
Result string: B, A, C
(B: 6.13, A: 6.47, C: 7.76)

a. Cc1c([C@@H](O)CN2CCC3(CC2)CCN(c2ccc(C(F)(F)F)cn2)CC3)ccc2c1COC2=O
b. Cc1c([C@@H](O)CN2CCC3(CC2)CCN(c2nc(Cl)cs2)C3)ccc2c1COC2=O
Query string: Returns: the argument ( a or b ) having the larger pIC50. // output: label of the selected item
Result string: a

a. Cc1c([C@@H](O)CN2CCC3(CC2)CCN(c2nccs2)CC3)ccc2c1COC2=O
b. COc1ccc(N2CCC3(CCN(C[C@H](O)c4cc(OC)c(C#N)cn4)CC3)C2)nn1
Query string: Which has the higher pIC50, a or b ? # respond with the chosen item's label
Result string: a
(a: 6.55, b: 6.32)
